Attribution: PubChem BioAssay

Entries and their measured percent response of DMSO control follow.
Experiment: TOR pathway RTG branch CIT2 reporter changes – S. cerevisiae, GFP fusion, multiplex flow cytometry, primary screen (AID 1870);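 note: barcoded CIT2-GFP strain pooled with four other GFP strains with rapamycin as positive control; median GFP fluorescence per well over plate mean of DMSO wells so 100% = DMSO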
Conditions: S. cerevisiae CIT2-GFP expression, 3 h, at 10 µM, stronger effect = higher value
Give just the number in %; leave the unit off.

# annotated cases, reported percent response of DMSO control shown
Per the record, O=C(O)c1ccccc1C(=O)OCCCCOC(=O)c1ccccc1C(=O)O has percent response of DMSO control of 105

Per the record, OCCN(CCO)c1nc(N2CCCCC2)c2nc(N(CCO)CCO)nc(N3CCCCC3)c2n1 has percent response of DMSO control of 100

Per the record, CC(C)c1ccc(NC(=O)CNS(=O)(=O)c2ccc(F)cc2)cc1 has percent response of DMSO control of 101

Per the record, CS(=O)(=O)c1cccc(C(=O)Oc2ccccc2)c1 has percent response of DMSO control of 106

Per the record, CC(C)CCC1(CCNC(C)c2cccs2)CCOC(C)(C)C1 (configuration not stated) has percent response of DMSO control of 97.8

Per the record, CC1(C)O[C@@H]2C[C@H]3[C@@H]4C[C@H](F)C5=CC(=O)CC[C@]5(C)[C@H]4[C@@H](O)C[C@]3(C)[C@]2(C(=O)CO)O1 has percent response of DMSO control of 89.3

Per the record, CC(C)(C)C(=O)Nc1cccc(OC(F)(F)C(F)Cl)c1 (configuration not stated) has percent response of DMSO control of 105

Per the record, COc1cccc(N2C(=O)CC(c3c[nH]c4ccccc34)C2=O)c1 (configuration not stated) has percent response of DMSO control of 110

# next molecule below
Per the record, OCCN(Cc1nc(-c2ccc3c(c2)OCO3)no1)Cc1cccs1 has percent response of DMSO control of 91.3

###

Assay: calorie-restriction mimetic ROS inhibitors, yeast – validation compound set, pilot screen (AID 2706);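 note: yeast exposed to compound for one week at 30 degrees C before staining; 100% = mean of all compound wells on the same plate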
Conditions: S. cerevisiae aging, superoxide DHE fluorescence; at 10 µM; stronger effect = lower value
observable: superoxide response (% of plate) (%)
Give just the number in %; leave the unit off.

Per the record, O=C(CN1C(=O)C2CCc3[nH]c4ccccc4c3C2C1=O)N1CCCC1 (configuration not stated) has superoxide response (% of plate) of 95.1

Per the record, CCOc1ccc(C(=O)NCC2(c3ccccc3)CCOCC2)cc1 has superoxide response (% of plate) of 95.9

Per the record, O[C@H]1COC2C1OC[C@@H]2O (some centres not stated) has superoxide response (% of plate) of 87.6

# next molecule below
Per the record, CCOc1cc2c3c(c1)C(C)=CC(C)(C)N3C(=O)C2=O has superoxide response (% of plate) of 108

###

Experiment: TOR pathway GLN3 branch reporter MEP2-GFP changes – S. cerevisiae, multiplex flow cytometry, primary screen (AID 1867);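 note: median GFP channel fluorescence of barcode-gated MEP2-GFP cells measured by flow cytometry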
Conditions: S. cerevisiae MEP2-GFP strain, 3 h, at 10 µM, stronger effect = higher value, 100% means same as DMSO wells
Records with an inconclusive call do not appear. Activity calls are given as the source filed them.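 How the source made its calls: active means GFP response, as percent of the DMSO control, above the screen-wide mean plus 3 SD, about 139; inconclusive means no response measured because the compound's own fluorescence interfered; inactive means the rest.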
observable: GFP response vs DMSO

Per the record, CCCc1c(OCCCCc2nn[nH]n2)ccc(C(C)=O)c1O has GFP response vs DMSO of 107% (inactive)

Per the record, COc1ccc2c(c1)c(=O)oc1cc3occ(C(C)(C)C)c3cc12 has GFP response vs DMSO of 105% (inactive)

Per the record, O=C(Nc1ncc2c(n1)CC(c1ccco1)CC2=O)c1ccco1 (stereo unspecified) has GFP response vs DMSO of 113% (inactive)

Per the record, CCc1cccc2c3c([nH]c12)C(CC)(CC(=O)O)OCC3 (stereo unspecified) has GFP response vs DMSO of 106% (inactive)

Per the record, O=C(NC(Nc1ccccn1)C(Cl)(Cl)Cl)c1ccccc1 (stereo unspecified) has GFP response vs DMSO of 102% (inactive)

# next compound below
Per the record, CCOc1ccc(C(=O)NC(C)C2COc3ccccc3O2)cc1 (stereo unspecified) has GFP response vs DMSO of 104% (inactive)

###

Experiment: AML differentiation inducers, ER-HoxA9 marrow cells – cell-based, GFP/MAC1 double positive, flow cytometry, validation set, primary screen (AID 588685);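 note: compound exposure lasts four days before antibody staining and flow analysis; 0% = DMSO wells and 100% = 5 µM fulvestrant positive control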
Conditions: stronger effect = higher value, normalized: vehicle 0, fulvestrant 100
The source made the active and inactive calls.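 How the source made its calls: active means differentiation response of at least 50%, scaled between solvent and reference control, from cells with both markers; inactive means the rest.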
observable: differentiation response

Per the record, CC(CCc1ccccc1)NC(=O)/C=C/c1ccccc1 (configuration not stated) has differentiation response of 0% (inactive)

Per the record, CC(C(=O)O)c1ccc(-c2ccccc2)c(F)c1 (configuration not stated) has differentiation response of 0.24% (inactive)

Per the record, COc1ccc(C(CC(=O)N2CCOCC2)C(C)C)cc1 (configuration not stated) has differentiation response of -18.4% (inactive)

Per the record, Cc1cc(NS(=O)(=O)c2ccc(N)cc2)no1 has differentiation response of -11.9% (inactive)

Others:
Per the record, CC(C)COCC1CC2(CC(C)(c3csc(N)n3)OC2=O)C(=O)O1 (configuration not stated) has differentiation response of -4.64% (inactive)

Per the record, CCc1nc2ccccc2n1Cc1ccc(OC)c(OC)c1 has differentiation response of 18.7% (inactive)

Per the record, O=C(NC(=S)N1CCCCC1)c1cccnc1 has differentiation response of 21.8% (inactive)

Per the record, CC(C)N(C(=O)Cc1ccccc1[N+](=O)[O-])C(C)C has differentiation response of -26.4% (inactive)

Per the record, O=C(NCCN1CCN(c2ccccc2)CC1)c1cccc(Br)c1 has differentiation response of 11.5% (inactive)

Per the record, COc1ccc2c(c1)[N+](C)(C)C(C)(C)C=C2C has differentiation response of 12.9% (inactive)

Per the record, O=C(CCC1CCCN(C(=O)c2ccsc2)C1)NCc1ccc(F)c(F)c1 (configuration not stated) has differentiation response of 8.06% (inactive)

Per the record, O=C(O)COc1ccc2occ(C(=O)c3ccccc3)c2c1 has differentiation response of 7.09% (inactive)

###

Test: hit retest on RPL19A-GFP reporter strain – cell-based, S. cerevisiae, flow cytometry, cherry picks, mother/daughter gates, confirmation (AID 2270)
Settings: 3 h, measured here: mother cell gate, at 10 µM, stronger effect = lower value, 100 = same GFP as DMSO wells
observable: GFP response vs DMSO (%)
Give just the number in %; leave the unit off.

Per the record, CCOc1nnc(C)c2c(C)n(-c3cccc(OC)c3)nc12 has GFP response vs DMSO of 106

Per the record, CCCS(=O)(=O)c1nnnn1-c1cccc(OC)c1 has GFP response vs DMSO of 83.9

Per the record, O=C(/C=C/c1ccccc1)c1ccccc1 has GFP response vs DMSO of 97.1

Per the record, CS(=O)(=O)Nc1cccc(C(=O)CC2(O)C(=O)Nc3ccc(Br)cc32)c1 (stereo not given) has GFP response vs DMSO of 96.2

Per the record, C[C@]12CCC(=O)C=C1CC[C@@H]1[C@@H]2[C@@H](O)C[C@@]2(C)[C@H]1CC[C@]2(O)C(=O)CO has GFP response vs DMSO of 104

Others:
Per the record, CNCCC(Oc1ccc(C(F)(F)F)cc1)c1ccccc1 (stereo not given) has GFP response vs DMSO of 99.1

Per the record, C#C[C@]1(O)CC[C@H]2[C@@H]3CCC4=CC(=O)CC[C@@H]4[C@H]3CC[C@@]21CC has GFP response vs DMSO of 101

Per the record, CCOC(=O)N1CCN(C(=O)CCc2ccc(S(=O)(=O)NCCc3ccccc3)cc2)CC1 has GFP response vs DMSO of 97.8

Per the record, COc1ccc(C2=CC(=O)C=CC2=O)cc1 has GFP response vs DMSO of 104

###

Target: Cell division control protein 42 homolog (Homo sapiens) (UniProt P60953)
Sequence (P60953 whole entry, looked up): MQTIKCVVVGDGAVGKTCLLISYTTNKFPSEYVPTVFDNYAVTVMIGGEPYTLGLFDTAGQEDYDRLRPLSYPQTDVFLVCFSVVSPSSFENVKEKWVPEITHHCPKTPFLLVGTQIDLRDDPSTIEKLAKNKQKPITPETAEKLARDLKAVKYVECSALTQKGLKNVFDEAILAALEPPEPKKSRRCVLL
Assay: inhibition of fluorescent GTP binding to wildtype Cdc42 – biochemical, multiplex bead flow cytometry, Bodipy-FL-GTP, dose response (AID 1334)
Conditions: bead-based flow cytometry, Bodipy-FL-GTP binding to GST-Cdc42; at 100 µM (top of the series) unless noted
Measured potencies and affinities stand elsewhere.
Entries and their measured fluorescence, percent of control (lower = inhibition) follow.
Please answer using the number first and the unit second.

# annotated cases, reported fluorescence, percent of control (lower = inhibition) shown
Per the record, CC(C)(C)OC(=O)N[C@@H](Cc1ccccc1)c1nnc(S(=O)(=O)Cc2cccc(F)c2)o1 has fluorescence, percent of control (lower = inhibition) of 33%

Per the record, CC(SC(=S)N(C)Cc1cccs1)C(=O)O (stereo unspecified) has fluorescence, percent of control (lower = inhibition) of 83.3%

Per the record, Cc1ccc(O)c(C(=O)c2cnn(C(=O)Cc3csc(C)n3)c2)c1 has fluorescence, percent of control (lower = inhibition) of 37%

Per the record, Cc1nc2ccc(-c3nc4ccc(N)cc4[nH]3)cc2[nH]1 has fluorescence, percent of control (lower = inhibition) of 35.3%

Per the record, N#Cc1c(-c2cccc(Br)c2)cc(-c2ccco2)[nH]c1=O has fluorescence, percent of control (lower = inhibition) of 23.1%

# next compound below
Per the record, CCOC(=O)c1cnc2c(C#N)cnn2c1N has fluorescence, percent of control (lower = inhibition) of 33.6%
